The reported numbers originate from patent US20120010075A1.

System: Leptosphaeria nodorum (LEPTNO)
assayMethodText: In vitro fungitoxicity of hydrazones with and without copper towards Leptosphaeria nodorum (Example 26)
Type: cell-based
assayContext: Parastagonospora nodorum, 72 h, copper-minus medium; test compound Concn. 0.05 μg/mL; 72 h at 25° C.; read-out: LEPTNO % Inhn. Minus Copper Observed
readoutKind: inhibition of growth at 0.05 µg/mL (%)
Use % as the unit, but write only the number.

[
  {
    "structureSmiles": "O=C(N/N=C/c1cc(C(F)(F)F)cc(C(F)(F)F)c1O)c1ccc(Cl)cc1",
    "reportedMeasurement": 22.4
  },
  {
    "structureSmiles": "O=C(N/N=C/c1ccc(Cl)c(Cl)c1O)c1cccc(Cl)c1",
    "reportedMeasurement": 12.7
  },
  {
    "structureSmiles": "C/C(=N\\NC(=O)c1cccc(C)c1)c1cc(Cl)ccc1O",
    "reportedMeasurement": 2.7
  },
  {
    "structureSmiles": "O=C(N/N=C/c1cc(Cl)cc(Cl)c1O)c1cc(Cl)ccc1O",
    "reportedMeasurement": 33.8
  },
  {
    "structureSmiles": "CC(C)/C(=N\\NC(=O)c1ccccc1)c1cc(Cl)cc(Cl)c1O",
    "reportedMeasurement": 7.6
  }
]

Query :: Read off the recorded inhibition of growth at 0.05 µg/mL for O=C(N/N=C/c1cc(Cl)cc(C(F)(F)F)c1O)c1ccccc1O
Result :: 28.6

Query :: Read off the recorded inhibition of growth at 0.05 µg/mL for COc1cccc(/C(C)=N/NC(=O)c2ccc(Br)cc2)c1O
Result :: 1.7

Query :: Read off the recorded inhibition of growth at 0.05 µg/mL for C/C(=N\NC(=O)c1ccc(C)cc1)c1cc(Cl)ccc1O
Result :: 7.6

Query :: Read off the recorded inhibition of growth at 0.05 µg/mL for O=C(N/N=C/c1cc(Br)cc(F)c1O)c1ccccc1O
Result :: 7.9

---

This listing pairs compounds with measured inhibition of growth at 0.05 µg/mL.
Tested on: Leptosphaeria nodorum (LEPTNO)
assayMethodText: In vitro fungitoxicity of hydrazones with and without copper towards Leptosphaeria nodorum (Example 26)
Type: cell-based
assayContext: Parastagonospora nodorum, 72 h, copper-minus medium; test compound Concn. 0.05 μg/mL; 72 h at 25° C.; read-out: LEPTNO % Inhn. Minus Copper Observed
Use % as the unit, but write only the number.

Answered examples (5):
[
  {
    "structureSmiles": "O=C(N/N=C/c1cc(Cl)cc(Cl)c1O)c1ccc2ccccc2c1O",
    "readoutKind": "inhibition of growth at 0.05 µg/mL",
    "unitInfo": "%",
    "reportedMeasurement": 20.1
  },
  {
    "structureSmiles": "COc1cccc(/C(C)=N/NC(=O)c2ccccc2)c1O",
    "readoutKind": "inhibition of growth at 0.05 µg/mL",
    "unitInfo": "%",
    "reportedMeasurement": 0
  },
  {
    "structureSmiles": "COc1ccc(C(=O)N/N=C/c2cc(Cl)cc(Cl)c2O)c(O)c1",
    "readoutKind": "inhibition of growth at 0.05 µg/mL",
    "unitInfo": "%",
    "reportedMeasurement": 12.8
  },
  {
    "structureSmiles": "O=C(N/N=C/c1cccc(Cl)c1O)c1cccc([N+](=O)[O-])c1",
    "readoutKind": "inhibition of growth at 0.05 µg/mL",
    "unitInfo": "%",
    "reportedMeasurement": 10.4
  },
  {
    "structureSmiles": "O=C(N/N=C/c1c(C(F)(F)F)ccc(Cl)c1O)c1ccccc1O",
    "readoutKind": "inhibition of growth at 0.05 µg/mL",
    "unitInfo": "%",
    "reportedMeasurement": 16.7
  }
]

Query :: Read off the recorded inhibition of growth at 0.05 µg/mL for Cc1ccc(C(=O)N/N=C/c2cc(C(F)(F)F)ccc2O)cc1
Result :: 14.6

Query :: Read off the recorded inhibition of growth at 0.05 µg/mL for C/C(=N\NC(=O)c1ccc(Cl)cc1O)c1cc(Cl)cc(Cl)c1O
Result :: 15.8

Query :: Read off the recorded inhibition of growth at 0.05 µg/mL for O=C(N/N=C/c1cc(C(F)(F)F)cc(C(F)(F)F)c1O)c1ccccc1O
Result :: 18

Query :: Read off the recorded inhibition of growth at 0.05 µg/mL for O=C(N/N=C/c1cc(Cl)ccc1O)c1ccc(F)cc1
Result :: 8.2
